Test system: Aβtotal
Test: Screening for γ-secretase-modulating activity in SKNBE2 cells carrying APP 695 wild type: Aβtotal in cell supernatant (Alphalisa)
Format: cell-based
Settings: Homo sapiens, overnight incubation
Description: Pharmacology A) Screening of the Compounds of the Invention for γ-Secretase-Modulating Activity […] Aβtotal and Aβ42 concentrations were quantified in the cell supernatant using the Aphalisa technology (Perkin Elmer). […] To quantify the amount of Aβ42 in the cell supernatant, monoclonal antibody specific to the C-terminus of Aβ42 (JRF/cAβ42/26) was coupled to the receptor beads and biotinylated antibody specific to the N-terminus of Aβ (JRF/AβN/25) was used to react with the donor beads. […]
pIC50: −log10 of the molar value.

{"COMPOUND": "COc1cc(Nc2nc3n(n2)CCCC3c2ccccc2Cl)ccc1-c1ccnc(C)c1 (stereo not shown) [Compound 77]", "pIC50": "< 5.00"}
{"COMPOUND": "COc1cc(Nc2nc3n(n2)CCCC3c2ccc(F)cc2)ccc1-c1ccnc(C)c1 (stereo not shown)", "pIC50": 5.11}
{"COMPOUND": "COc1cc(Nc2nc3n(n2)CCN(C)C3c2ccccc2C(F)(F)F)ccc1-n1cnc(C)c1 (stereo not shown)", "pIC50": 5.11}
{"COMPOUND": "COc1cc(Nc2nc3n(n2)CCOC3c2ccccc2C(F)(F)F)ccc1-n1cnc(C)c1 (stereo not shown)", "pIC50": "< 5.00"}
{"COMPOUND": "COc1cc(Nc2nc3n(n2)CCCC3c2cccc(F)c2)ccc1-n1cnc(C)c1 (stereo not shown)", "pIC50": "< 5.00"}
{"COMPOUND": "Cc1cc(-c2ccc(Nc3nc4n(n3)CCCC4c3cc(C(F)(F)F)ccc3F)cc2)ccn1 (stereo not shown)", "pIC50": "< 5.00"}
{"COMPOUND": "FC(F)(F)c1ccccc1C1CCCn2nc(Nc3ccc(-c4ccncc4)cc3)nc21 (stereo not shown)", "pIC50": "< 5.00"}
{"COMPOUND": "COc1cc(Nc2nc3n(n2)CCCC3c2ccc(C(F)(F)F)cc2)ccc1-c1ccnc(C)c1 (stereo not shown)", "pIC50": 5.04}
{"COMPOUND": "Cc1cc(-c2ccc(Nc3nc4n(n3)CCCC4c3ccc(F)cc3F)cc2)ccn1 (stereo not shown)", "pIC50": "< 5.00"}
{"COMPOUND": "COc1cc(Nc2nc3n(n2)CCCC3c2ccccc2F)ccc1-c1ccnc(C)c1 (stereo not shown)", "pIC50": "< 5.00"}
{"COMPOUND": "COc1cc(Nc2nc3n(n2)CCCC3c2ccccc2C(F)(F)F)ccc1-n1cnc(C)n1 (stereo not shown)", "pIC50": "< 5.00"}
{"COMPOUND": "COc1cc(Nc2nc3n(n2)CCCC3c2ccc(F)cc2)ccc1-n1cnc(C)c1 (stereo not shown)", "pIC50": "< 5.00"}
{"COMPOUND": "Cc1cc(-c2ccc(Nc3nc4c(-c5ccccc5Cl)cccn4n3)cc2F)ccn1", "pIC50": "< 5.00"}
